assay_target: CDK4/cyclin D3 (Homo sapiens, UniProt P11802)
Sequence (P11802 whole entry): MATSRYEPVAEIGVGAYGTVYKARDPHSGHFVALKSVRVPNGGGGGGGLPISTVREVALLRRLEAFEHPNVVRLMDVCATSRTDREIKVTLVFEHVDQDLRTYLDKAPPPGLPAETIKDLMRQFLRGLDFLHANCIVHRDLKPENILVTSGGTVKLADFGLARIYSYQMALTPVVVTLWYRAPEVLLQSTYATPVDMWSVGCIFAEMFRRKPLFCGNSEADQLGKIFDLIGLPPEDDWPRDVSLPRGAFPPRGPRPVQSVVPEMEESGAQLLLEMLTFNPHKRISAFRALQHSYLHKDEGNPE
Sequence (P30281 whole entry partner): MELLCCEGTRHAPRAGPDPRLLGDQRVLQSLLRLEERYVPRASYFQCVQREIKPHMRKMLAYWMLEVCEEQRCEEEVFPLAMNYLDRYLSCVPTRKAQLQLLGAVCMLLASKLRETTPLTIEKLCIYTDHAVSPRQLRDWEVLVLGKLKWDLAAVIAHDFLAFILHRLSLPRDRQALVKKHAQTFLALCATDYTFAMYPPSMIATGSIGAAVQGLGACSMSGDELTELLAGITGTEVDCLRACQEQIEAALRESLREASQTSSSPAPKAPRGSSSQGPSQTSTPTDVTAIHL
assay_procedure: Inhibition of CDK4/Cyclin D retinoblastoma kinase activity
assay_setup: apparent Ki; Rb fragment substrate, 25 μM ATP
pKi: −log10 of the molar value.
property_name: pKi

1) CN1CCN(c2ccc(Nc3nc4[nH]nc(-c5ccccc5)c4s3)cc2)CC1 [Compound 4]    6.77
2) NS(=O)(=O)c1ccc(Nc2nc3[nH]nc(-c4ccccc4)c3s2)cc1 [Compound 2]    6.41
3) COc1ccc(Nc2nc3[nH]nc(-c4ccccc4)c3s2)cc1 [Compound 1]    5.80
